# System: Bacillus subtilis
# procedure.text: cleaved RNA product abundance (RNA/gDNA barcode ratio) relative to median wild-type variant (ratio to wild type); higher = more accumulation of the downstream cleavage product
# applied.conditions: experiment (reporter, strain, medium): exp 4a: truncated aprE reporter, strain BJT201 with 2% xylose (RNase J1 expressed); cleavage site: cggR-gapA (positions -7 to +36 mutated)
cleaved RNA product abundance values for the sequences below.
parameter: cleaved RNA product abundance

# seq, parameter, result
data = [
    ("ACAGACGAAGGAGCCGCAAAGAAGTTATTAATGGATGAATAATCCCTCAATATATATATCTCTCACTTATTTAAA", "cleaved RNA product abundance", 0.15),
    ("ACAGACGAAGGAGCCGCAAAGAAGTTATAAAGGGATGAATAATCCCTCAATAAAAATATCTCTCACTTATTTAAA", "cleaved RNA product abundance", 0.0461),
    ("ACAGACGAAGGAGCCGCAAAGAAGTTATTAAGGGATTAACAATCCCTCAATATAAATATCTCTCACTTATTTAAA", "cleaved RNA product abundance", 0.961),
    ("ACAGACGAAGGAGCCGCAAAGAAGTTATTAATGAATGAATAATCCCTCAATATAAATATCTCTCACTTATTTAAA", "cleaved RNA product abundance", 0.137),
    ("ACAGACGAAGGAGCCGCAAAGAAGTTATTAAGGGATGTATAATCCCTCAAAATAAATATCTCTCACTTATTTAAA", "cleaved RNA product abundance", 0.344),
    ("ACAGACGAAGGAGCCGCAAAGACGTTCTTAAGGGATGAATAATCCCTCAATATAAATATCTCTCACTTATTTAAA", "cleaved RNA product abundance", 0.231),
    ("ACAGACGAAGGAGCCGCAAAGAAGTTATTAAGGGATTAATAATCCCTCAATATAATTATCTCTCACTTATTTAAA", "cleaved RNA product abundance", 0.43),
    ("ACAGACGAAGGAGCCGCAAAGAAGTTATTAAGGCATGAATAATCCCTAAATATAAATATCTCTCACTTATTTAAA", "cleaved RNA product abundance", 0.151),
    ("ACAGACGAAGGAGCCGCAAAGAAGTTATCAAGGGATTAATAATCCCTCATTATAAATATCTCTCACTTATTTAAA", "cleaved RNA product abundance", 0.314),
    ("ACAGACGAAGGAGCCGCAAAGAAGTTATTAAGAGATGAATAATCCCTAAATATAAATATCTCTCACTTATTTAAA", "cleaved RNA product abundance", 0.158),
    ("ACAGACGAAGGAGCCGCAAAGAAGTTATTAATGGATGACTAATCCCTCAATATAAATATCTCTCACTTATTTAAA", "cleaved RNA product abundance", 0.114),
    ("ACAGACGAAGGAGCCGCAAAGAAGTTATTAAGGGATGAATAATCCCACAAGATAAATATCTCTCACTTATTTAAA", "cleaved RNA product abundance", 0.187),
    ("ACAGACGAAGGAGCCGCAAATAAATTATTAAGGGATGAATATTCCCTCAATATAAATATCTCTCACTTATTTAAA", "cleaved RNA product abundance", 0.421),
    ("ACAGACGAAGGAGCCGCAAAGAAGTTATTAAGGGATAAATAATCCCTCAAAATAAATATCTCTCACTTATTTAAA", "cleaved RNA product abundance", 0.241),
    ("ACAGACGAAGGAGCCGCAAAGAAGTTATTTAGGGATGAAGAATCCCTCAATATAAATATCTCTCACTTATTTAAA", "cleaved RNA product abundance", 0.607),
]

---

# Test system: Bacillus subtilis
# procedure.text: cleaved RNA product abundance (RNA/gDNA barcode ratio) relative to median wild-type variant (ratio to wild type); higher = more accumulation of the downstream cleavage product
# applied.conditions: experiment (reporter, strain, medium): exp 8a: truncated aprE reporter, strain BJT201 with 2% xylose (RNase J1 expressed); cleavage site: glnRA (positions -5 to +31 mutated)
parameter: cleaved RNA product abundance

# seq, parameter, quantitative.result
rows = [
    ("CGACATGTCCCGCTTCTTTCATTAATCCGTTAGCAACTGTTTTGCTATATACATTTATCGTTTAAGAGGAGGAAT", "cleaved RNA product abundance", 0.92),
    ("CGACATGTCCCGCTTCTTTCATTAATTTGTTAGCAACTGTTTTGCTATATACATTTACCTTTTAAGAGGAGGAAT", "cleaved RNA product abundance", 1.37),
    ("CGACATGTCCCGCTTCTTTCATTAATCAGTTAGCAACTGTTTAGCTATATACATTTACCTTTTAAGAGGAGGAAT", "cleaved RNA product abundance", 0.775),
    ("CGACATGTCCCGCTTCTTTCATTAATCCGTTATCAACTGTTTTGCAATATACATTTACCTTTTAAGAGGAGGAAT", "cleaved RNA product abundance", 0.266),
    ("CGACATGTCCCGCTTCTTTCATTACTCCGTTAGCAACTGTTTTGCTGTATACATTTACCTTTTAAGAGGAGGAAT", "cleaved RNA product abundance", 0.372),
    ("CGACATGTCCCGCTTCTTTCATTAATCCGTTATCAACTGTTTTGCTATATACATTTACCTTTTAAGAGGAGGAAT", "cleaved RNA product abundance", 0.298),
    ("CGACATGTCCCGCTTCTTTCATTAATCCGTTAGCAACTGTGTTGCTATATACATTTACCATTTAAGAGGAGGAAT", "cleaved RNA product abundance", 0.38),
    ("CGACATGTCCCGCTTCTTTCATTAACCCGTTAGCAACTTTTTTGCTATATACATTTACCTTTTAAGAGGAGGAAT", "cleaved RNA product abundance", 0.909),
    ("CGACATGTCCCGCTTCTTTCATTAATCCGTTAGCAAGTGTTTTGCTATATACATCTACCTTTTAAGAGGAGGAAT", "cleaved RNA product abundance", 0.494),
    ("CGACATGTCCCGCTTCTTTCATTAATCCGTTATCAACTGTTTTGCTATATACATATACCTTTTAAGAGGAGGAAT", "cleaved RNA product abundance", 0.348),
    ("CGACATGTCCCGCTTCTTTCATTAATCCGTTAGCAACTGTTTTGCCATATACATATACCTTTTAAGAGGAGGAAT", "cleaved RNA product abundance", 0.198),
    ("CGACATGTCCCGCTTCTTTCATTAATCCGTTATCGACTGTTTTGCTATATACATTTACCTTTTAAGAGGAGGAAT", "cleaved RNA product abundance", 0.257),
    ("CGACATGTCCCGCTTCTTTCATTAATCCATTAGCAACTATTTTGCTATATACATTTACCTTTTAAGAGGAGGAAT", "cleaved RNA product abundance", 0.423),
    ("CGACATGTCCCGCTTCTTTCATTAATCCGTTAGCAACAGTTTTGCTATATACATATACCTTTTAAGAGGAGGAAT", "cleaved RNA product abundance", 1.16),
    ("CGACATGTCCCGCTTCTTTCATTATTCCGTTAGCAACTGTTTTCCTATATACATTTACCTTTTAAGAGGAGGAAT", "cleaved RNA product abundance", 0.524),
]

---

cleaved RNA product abundance values for the sequences below.
# Test system: Bacillus subtilis
# procedure.text: cleaved RNA product abundance (RNA/gDNA barcode ratio) relative to median wild-type variant (ratio to wild type); higher = more accumulation of the downstream cleavage product
# applied.conditions: experiment (reporter, strain, medium): exp 4a: truncated aprE reporter, strain BJT201 with 2% xylose (RNase J1 expressed); cleavage site: cggR-gapA (positions -7 to +36 mutated)

# seq, subject.of.test, cleaved RNA product abundance
data = [
    ("ACAGACGAAGGAGCCGCAAAGAAGTTATTAAGGGATGAAGAATTCCTCAATATAAATATCTCTCACTTATTTAAA", "Bacillus subtilis", 0.29),
    ("ACAGACGAAGGAGCCGCACAGAAGTTATTAAGAGATGAATAATCCCTCAATATAAATATCTCTCACTTATTTAAA", "Bacillus subtilis", 0.215),
    ("ACAGACGAAGGAGCCGCAAAGAAGTTATTAATGGAAGAATAATCCCTCAATATAAATATCTCTCACTTATTTAAA", "Bacillus subtilis", 0.114),
    ("ACAGACGAAGGAGCCGCAGAGAAGTTATTAAGGGATGAATAATCCCTCAATATAAATATCTCTCACTTATTTAAA", "Bacillus subtilis", 0.799),
    ("ACAGACGAAGGAGCCGCATAGAAGTTATTAAGGGAAGAATAATCCCTCAATATAAATATCTCTCACTTATTTAAA", "Bacillus subtilis", 0.6),
    ("ACAGACGAAGGAGCCGCAAAGAAGTTATTAAGGAATGAATGATCCCTCAATATAAATATCTCTCACTTATTTAAA", "Bacillus subtilis", 0.0629),
    ("ACAGACGAAGGAGCCGCAAAGAAGTTATTAATGGATGAATAATCACTCAATATAAATATCTCTCACTTATTTAAA", "Bacillus subtilis", 0.141),
]
